Cited source for all entries: patent US20240287161A1

tgt: Authentic CoV2 (SARS-CoV-2 JPN/TY/WK-521)
method: cell-based or functional assay
parameter.measured: IC50, authentic virus neutralization [NT-193]
Remember to follow the number with its unit.

Given item NT-193, human IgG3 subclass (antibody, V domains shown) VH: EVQLQQWGAGLLKPSETLSLTCAVYGGSFSGYYWSWIRQPPGKGLEWIGEINHSGSTNYNPSLKSRVTISVDTSKNQFSLKLSSVTAADTAVYYCARGWDLDYYYGMDVWGQGTTVTVSS VL: DIRMTQSPSAMSASVGDRVTVTCRASQGIGNYLAWFQLKPGKVPKRLIYAASSLQSGVPARFSGGGSGTEFTLTISSLQPEDFATYYCLQHGFLPWTFGQGTKLEIK , the value recorded as its IC50, authentic virus neutralization [NT-193] is 0.127 mg/L

Short answer for NT-193 (recombinant human IgG1/kappa antibody) (antibody, V domains shown) VH: EVQLQQWGAGLLKPSETLSLTCAVYGGSFSGYYWSWIRQPPGKGLEWIGEINHSGSTNYNPSLKSRVTISVDTSKNQFSLKLSSVTAADTAVYYCARGWDLDYYYGMDVWGQGTTVTVSS VL: DIRMTQSPSAMSASVGDRVTVTCRASQGIGNYLAWFQLKPGKVPKRLIYAASSLQSGVPARFSGGGSGTEFTLTISSLQPEDFATYYCLQHGFLPWTFGQGTKLEIK : IC50, authentic virus neutralization [NT-193] was 0.241 mg/L

Consider NT-193, human IgG2 subclass (antibody, V domains shown) VH: EVQLQQWGAGLLKPSETLSLTCAVYGGSFSGYYWSWIRQPPGKGLEWIGEINHSGSTNYNPSLKSRVTISVDTSKNQFSLKLSSVTAADTAVYYCARGWDLDYYYGMDVWGQGTTVTVSS VL: DIRMTQSPSAMSASVGDRVTVTCRASQGIGNYLAWFQLKPGKVPKRLIYAASSLQSGVPARFSGGGSGTEFTLTISSLQPEDFATYYCLQHGFLPWTFGQGTKLEIK . Its measured IC50, authentic virus neutralization [NT-193] is 0.212 mg/L
